Biological target: human glyceraldehyde-3-phosphate dehydrogenase (GAPDH) (human, UniProt P04406 1-335, fluorescent dye NT-647 (Monolith NT Protein Labeling Kit RED-NHS))
Sequence (P04406 whole entry): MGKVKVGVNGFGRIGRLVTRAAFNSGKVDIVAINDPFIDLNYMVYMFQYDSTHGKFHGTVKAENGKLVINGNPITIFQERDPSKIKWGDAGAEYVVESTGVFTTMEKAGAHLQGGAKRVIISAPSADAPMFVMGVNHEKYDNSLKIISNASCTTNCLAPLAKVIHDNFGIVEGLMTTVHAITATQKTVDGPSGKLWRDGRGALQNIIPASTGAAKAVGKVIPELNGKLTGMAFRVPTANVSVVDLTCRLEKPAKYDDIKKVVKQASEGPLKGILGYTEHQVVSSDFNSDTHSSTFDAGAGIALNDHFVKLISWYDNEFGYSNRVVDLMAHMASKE
Experiment: MST
Recorded Endpoint: Kd (nM)
Answers are plain numbers, in nM.

Can you look up the measured Kd of GLLRKGGEKIGEKLKKIGQKIKNFFQKLVPQPEQ [Mouse cathelicidin-related antimicrobial peptide] for me?
472
